IC50: recorded values
Target: Menin-MLL (Homo sapiens)
Construct: His-Menin (M1-L615 end); purchased BIORTUS BP9210
Sequence (O00255 1-615 isoform O00255-1): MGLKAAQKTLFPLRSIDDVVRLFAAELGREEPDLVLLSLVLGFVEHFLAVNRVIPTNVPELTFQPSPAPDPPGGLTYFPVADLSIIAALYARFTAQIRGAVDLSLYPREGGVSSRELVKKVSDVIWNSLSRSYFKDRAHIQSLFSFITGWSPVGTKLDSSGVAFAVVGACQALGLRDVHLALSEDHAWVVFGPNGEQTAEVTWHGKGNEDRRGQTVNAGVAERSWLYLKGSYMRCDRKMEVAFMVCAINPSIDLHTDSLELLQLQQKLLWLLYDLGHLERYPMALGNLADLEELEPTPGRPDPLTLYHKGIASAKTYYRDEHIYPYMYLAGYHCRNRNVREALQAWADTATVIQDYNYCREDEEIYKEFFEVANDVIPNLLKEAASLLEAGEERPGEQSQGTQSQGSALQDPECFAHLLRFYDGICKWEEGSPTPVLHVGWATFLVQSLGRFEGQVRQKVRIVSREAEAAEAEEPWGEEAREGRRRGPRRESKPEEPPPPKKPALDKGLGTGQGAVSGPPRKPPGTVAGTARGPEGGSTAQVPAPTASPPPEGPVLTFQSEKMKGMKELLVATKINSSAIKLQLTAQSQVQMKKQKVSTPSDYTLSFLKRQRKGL
Assay: Inhibitory activity against Menin-MLL binding (fluorescence polarization)
Settings: fluorescence polarization; 150 nM His-Menin, 15 nM FITC-MLL; 25°C for 60 min; read-out: Menin-MLL IC50
Experimental: • His-Menin (M1-L615 end), purchased from BIORTUS, Catalog Number: BP9210; and • FITC-MLL4-43, purchased from GenScript, Catalog Number: C491HFF190-3/PE1324. In a 10 µL reaction solution (20 mM HEPES, pH 7.5, 50 mM NaCl, 1 mM DTT, 0.01% BSA) containing any compound from the examples, 150 nM His-Menin was added to a 384-well plate (Corning, Model: 4514). […] Changes in fluorescence polarization were measured using a plate reader (PerkinElmer, Envision 2104). […]
A number alone suffices; assume nM.

| molecule | measured_on | IC50 / nM |
| --- | --- | --- |
| Cc1ncc2c(-c3ccc(F)cc3C(=O)N3CCOC[C@H]3C)cc(C3CN([C@H](CCCN4CCN(C)CC4)C(C)C)C3)cn12 | Menin-MLL (Homo sapiens) | 2.7 |
| CCC(=O)N1CCC(CN2CC(c3cc(-c4ccc(F)cc4C(=O)N4[C@H](C)COC[C@H]4C)c4c(F)nc(C)n4c3)C2)CC1 | Menin-MLL (Homo sapiens) | 22.5 |

# input for lookup
Asked: State, in one line, measured IC50 of CCN(C(=O)c1cc(F)ccc1-c1cc(C2CN(C(CCC(=O)O)C(C)C)C2)cn2c(C)ncc12)C(C)C (stereo not drawn)
Given back: 120

###

Biological target: Menin-MLL (Homo sapiens)
Construct: His-Menin (M1-L615 end); purchased BIORTUS BP9210
Experiment: Inhibitory activity against Menin-MLL binding (fluorescence polarization)
Settings: fluorescence polarization; 150 nM His-Menin, 15 nM FITC-MLL; 25°C for 60 min; read-out: Menin-MLL IC50
property_label: pIC50
pIC50 is defined as minus the log10 of a concentration measured in mol/L.

Asked: State, in one line, measured pIC50 of CCN(C(=O)c1cc(F)ccc1-c1cc(C2CCN(Cc3ccc(-c4cc(OC)c(OC)nn4)cc3)C2)cn2c(C)ncc12)C(C)C (stereo not shown) [Example 83]
Given back: 8.22

###

Target: Menin-MLL (Homo sapiens, UniProt O00255)
Construct: His-Menin (M1-L615 end); purchased BIORTUS BP9210
Sequence (O00255 1-615 isoform O00255-1): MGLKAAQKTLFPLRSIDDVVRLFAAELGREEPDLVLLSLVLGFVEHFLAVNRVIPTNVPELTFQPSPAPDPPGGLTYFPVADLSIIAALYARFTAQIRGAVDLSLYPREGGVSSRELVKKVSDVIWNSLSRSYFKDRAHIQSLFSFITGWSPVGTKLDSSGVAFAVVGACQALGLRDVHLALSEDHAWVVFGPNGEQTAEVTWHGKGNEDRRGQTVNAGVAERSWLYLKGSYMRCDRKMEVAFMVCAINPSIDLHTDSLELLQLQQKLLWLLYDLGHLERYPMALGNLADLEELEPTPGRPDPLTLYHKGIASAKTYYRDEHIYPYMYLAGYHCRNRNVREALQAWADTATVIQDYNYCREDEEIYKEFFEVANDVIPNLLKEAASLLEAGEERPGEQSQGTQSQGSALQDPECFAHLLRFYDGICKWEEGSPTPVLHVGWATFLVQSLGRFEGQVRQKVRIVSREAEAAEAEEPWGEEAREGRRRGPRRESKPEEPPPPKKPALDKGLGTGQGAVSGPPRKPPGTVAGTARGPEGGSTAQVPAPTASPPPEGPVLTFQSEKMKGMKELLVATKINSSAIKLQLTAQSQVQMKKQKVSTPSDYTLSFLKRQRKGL
Assay: Inhibitory activity against Menin-MLL binding (fluorescence polarization)
Settings: fluorescence polarization; 150 nM His-Menin, 15 nM FITC-MLL; 25°C for 60 min; read-out: Menin-MLL IC50
Please assign a class to every record based on measured IC50, with ranges LOW: < 6 nM; MID: ≥ 6 nM and < 20 nM; HIGH: ≥ 20 nM

Some solved cases for reference:
| compound | class_label |
| --- | --- |
| CCN(C(=O)c1cc(F)ccc1-c1cc(C2CN(C[C@H]3CC[C@H](NS(=O)(=O)CC)CC3)C2)cn2c(C)nc(F)c12)C(C)C | MID |
| CCN1CCN(C[C@H](C(C)C)N2CC(c3cc(-c4ccc(F)cc4C(=O)N(CC)C(C)C)c4cnn(C)c4c3)C2)CC1 | MID |
| CCCC(=O)N1CCC(C(C)N2CC(c3cc(-c4ccc(F)cc4C(=O)N4CCOC[C@H]4C)c4cnc(C)n4c3)C2)CC1 (some centres unmarked) | MID |
| CCN(C(=O)c1cc(F)ccc1-c1cc(C2CN([C@H](CN3CCS(=O)(=O)CC3)C(C)C)C2)cn2c(C)ncc12)C(C)C | MID |

Asked: Consider `Cc1nc(F)c2c(-c3ccc(F)cc3C(=O)N3CCOC[C@H]3C)cc(C3CN(CC4CCN(C(=O)N5CC(F)(F)C5)CC4)C3)cn12` . To which IC50 class does it belong?
Given back: HIGH

Asked: Consider `CCN(C(=O)c1cc(F)ccc1-c1cc(C2CN([C@H](CCCN3CCN(CCC#N)CC3)C(C)C)C2)cn2c(C)ncc12)C(C)C` . To which IC50 class does it belong?
Given back: LOW

Asked: Consider `CCN(C(=O)c1cc(F)ccc1-c1cc(C2CN([C@H](CC[C@@H]3COCCN3)C(C)C)C2)cn2c(C)ncc12)C(C)C` . To which IC50 class does it belong?
Given back: LOW

Asked: Consider `C=C1C[C@@H]2CC[C@H]1[C@@H](C(=O)N1CC(c3cc(-c4ccc(F)cc4C(=O)N(CC(F)F)C(C)C)c4cnc(C)n4c3)C1)N2` . To which IC50 class does it belong?
Given back: HIGH

Asked: Consider `Cc1nc(F)c2c(-c3ccc(F)cc3C(=O)N3CCOC[C@H]3C)cc(C3CN([C@H](CO[C@@H]4CCCN(C)C4)C(C)C)C3)cn12` . To which IC50 class does it belong?
Given back: MID

Asked: Consider `CC(=O)N1CC2CCC(C1)N2CCC[C@H](C(C)C)N1CC(c2cc(-c3ccc(F)cc3C(=O)N3CCOC[C@H]3C)c3cnn(C)c3c2)C1` . To which IC50 class does it belong?
Given back: MID

Asked: Consider `CCN(C(=O)c1cc(F)ccc1-c1cc(C2CN([C@H](CCCN3CCOC[C@H]3CO)C(C)C)C2)cn2c(C)ncc12)C(C)C` . To which IC50 class does it belong?
Given back: LOW

Asked: Consider `Cc1nc(F)c2c(-c3ccc(F)cc3C(=O)N3CCOC[C@H]3C)cc(C3CN([C@H](CCCN4CC5(COC5)C4)C(C)C)C3)cn12` . To which IC50 class does it belong?
Given back: LOW

Asked: Consider `CCN(C(=O)c1cc(F)ccc1-c1cc(C2CN([C@@H](CCCN3CCN(C)CC3)C(C)C)C2)cn2c(C)ncc12)C(C)C` . To which IC50 class does it belong?
Given back: HIGH

Asked: Consider CCN(C(=O)C(C)C)c1cc(F)ccc1-c1cc(N2CCN(C(=O)C3NC4CCC3CC4)CC2)cn2c(C)ncc12 (centres unmarked) . To which IC50 class does it belong?
Given back: MID

Asked: Consider `Cc1nc(F)c2c(-c3ccc(F)cc3C(=O)N3CCOC[C@H]3C)cc(C3CN(C[C@H]4CC[C@@H](c5cnn(C)c5)CC4)C3)cn12` . To which IC50 class does it belong?
Given back: MID

Asked: Consider `Cc1nc(F)c2c(-c3ccc(F)cc3C(=O)N3CCOC[C@H]3C)cc(C3CN([C@@H](CN4CCN(C)CC4)C(C)C)C3)cn12` . To which IC50 class does it belong?
Given back: HIGH

Asked: Consider `CCN(C(=O)c1cc(F)ccc1-c1cc(N2CCN(C(=O)[C@@H]3CCCN3)CC2)cn2c(C)ncc12)C(C)C` . To which IC50 class does it belong?
Given back: HIGH
